Where do the numbers come from? From patent US20230233569A1.

- measured-on: NRAS G12C (Homo sapiens, UniProt P01111+P62937, G12C)
- Sequence (P01111 whole entry G12C): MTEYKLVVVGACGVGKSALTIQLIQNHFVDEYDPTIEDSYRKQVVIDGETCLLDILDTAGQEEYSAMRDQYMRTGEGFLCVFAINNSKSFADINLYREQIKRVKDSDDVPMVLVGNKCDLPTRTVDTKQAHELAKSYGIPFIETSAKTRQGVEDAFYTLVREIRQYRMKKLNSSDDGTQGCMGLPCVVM
- Sequence (P62937 whole entry): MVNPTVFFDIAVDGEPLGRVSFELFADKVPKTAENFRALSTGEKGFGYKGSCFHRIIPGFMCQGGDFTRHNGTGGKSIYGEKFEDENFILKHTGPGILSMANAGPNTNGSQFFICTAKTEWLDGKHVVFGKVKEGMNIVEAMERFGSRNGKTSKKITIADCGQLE
- assay-comment: Disruption of BRAF RBD interaction with Ras (FRET / MOA assay, with Cyclophilin A)
- Type: biochemical
- test-parameters: NRAS G12C; read-out: NRAS G12C FRET data IC50
pIC50: −log10 of the molar value.
measurement-name: pIC50

Solved cases (3 shown):
{"molecule": "CCn1c(-c2cccnc2[C@H](C)OC)c2c3cc(ccc31)-c1cccc(c1)C[C@H](NC(=O)[C@H](C(C)C)N(C)C(=O)[C@H]1CCN(C(=O)C(C)(C)N(C)C)C1)C(=O)N1CCC[C@H](N1)C(=O)OCC(C)(C)C2", "pIC50": "5.00 to 6.00"}
{"molecule": "CCn1c(-c2cccnc2[C@H](C)OC)c2c3cc(ccc31)-c1cc(O)cc(c1)C[C@H](NC(=O)[C@H](C(C)C)N(C)C(=O)Cc1cc[nH]n1)C(=O)N1CCC[C@H](N1)C(=O)OCC(C)(C)C2", "pIC50": "6.00 to 7.00"}
{"molecule": "CCn1c(-c2cccnc2[C@H](C)OC)c2c3cc(ccc31)-c1csc(n1)C[C@H](NC(=O)[C@H](C(C)C)N(C)C(=O)N1CC(N3CCCC3)C1)C(=O)N1CCC[C@H](N1)C(=O)OCC(C)(C)C2", "pIC50": "6.00 to 7.00"}

Continue with the molecule presented below.
For the molecule shown here, CCn1c(-c2cccnc2[C@H](C)OC)c2c3cc(ccc31)-c1csc(n1)C[C@H](NC(=O)[C@H](C(C)C)N(C)C(=O)N1CC(C#N)C1)C(=O)N1CCC[C@H](N1)C(=O)OCC(C)(C)C2 (atropisomer, axis not shown) , give the reported pIC50. 7.00 to 8.00

---

- measured-on: KRAS G12D (Homo sapiens, UniProt P01116+P62937, G12D)
- Sequence (P01116 1-169 isoform P01116-2 G12D limits assumed): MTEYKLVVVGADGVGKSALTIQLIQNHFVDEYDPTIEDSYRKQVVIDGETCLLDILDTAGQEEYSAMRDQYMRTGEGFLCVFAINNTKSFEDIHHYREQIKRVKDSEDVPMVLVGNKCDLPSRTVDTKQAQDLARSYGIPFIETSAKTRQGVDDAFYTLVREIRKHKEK
- Sequence (P62937 whole entry): as the sequence (P62937 whole entry) above
- assay-comment: Disruption of BRAF RBD interaction with Ras (FRET / MOA assay, with Cyclophilin A)
- Assay type: biochemical
- test-parameters: read-out: KRAS G12D FRET data, IC50
- From the text: This protocol may also be executed substituting other Ras proteins or nucleotides. The purpose of this biochemical assay was to measure the ability of test compounds to facilitate ternary complex formation between a nucleotide-loaded K-Ras isoform and Cyclophilin A; the resulting ternary complex disrupts binding to a BRAF^RBD construct, inhibiting K-Ras signaling through a RAF effector. Data is reported as IC50 values. […]
pIC50: −log10 of the molar value.
Each record here notes measured pIC50.

Solved cases (3 shown):
{"compound": "CCn1c(-c2cccnc2[C@H](C)OC)c2c3cc(ccc31)-c1cc(O)cc(c1)C[C@H](NC(=O)[C@H](C(C)C)N(C)C(=O)C1CC13CCNCC3)C(=O)N1CCC[C@H](N1)C(=O)OCC(C)(C)C2 (stereo partly shown)", "pIC50": "6.00 to 7.00"}
{"compound": "CCn1c(-c2cccnc2[C@H](C)OC)c2c3cc(ccc31)-c1cc(O)cc(c1)C[C@H](NC(=O)[C@@H]1C[C@H]1C)C(=O)N1CCC[C@H](N1)C(=O)OCC(C)(C)C2", "pIC50": "< 5.00"}
{"compound": "CCn1c(-c2cccnc2[C@H](C)OC)c2c3cc(ccc31)N1CCO[C@@](C)(CC(NC(=O)[C@H](C(C)C)N(C)C(=O)C3(F)CCN(C(=O)C#CC(C)(C)N(C)C)CC3)C(=O)N3CCC[C@H](N3)C(=O)OCC(C)(C)C2)C1 (stereo partly shown)", "pIC50": "5.00 to 6.00"}

Query pIC50 on KRAS G12D (Homo sapiens, UniProt P01116+P62937, G12D) for `CCn1c(-c2cccnc2[C@H](C)OC)c2c3cc(ccc31)-c1csc(n1)C[C@H](NC(=O)[C@H](C(C)C)N(C)C(=O)N1CCOC3(CN(C)C3)C1)C(=O)N1CCC[C@H](N1)C(=O)OCC(C)(C)C2` 6.00 to 7.00
